# assay-details: in vivo
# condition-description: male, beagle, dog, plasma, iv, 0.78 mg/kg, mean abiraterone AUCINF after IV, corrected for dose, dogs; IV abiraterone isocaproate (0.78 mg/kg as abiraterone)
readout-name: AUC(0-inf) (ng·h/mL)
Kindly provide the numeric value in ng·h/mL only, without the unit symbol.

// AUC(0-inf) lookup, molecule = C[C@]12CC[C@H](O)CC1=CC[C@@H]1[C@@H]2CC[C@]2(C)C(c3cccnc3)=CC[C@@H]12 , result: 131

---

# assay-details: in vivo
# condition-description: Beagle, dog, iv, […]
readout-name: half-life (min)
Kindly provide the numeric value in min only, without the unit symbol.

// half-life lookup, compound = CCCCCCCCCC(=O)O[C@H]1CC[C@@]2(C)C(=CC[C@@H]3[C@@H]2CC[C@]2(C)C(c4cccnc4)=CC[C@@H]32)C1 [Abiraterone Decanoate, Abiraterone decanoate] , result: 51.6

---

# assay-details: PK modelling and deconvolution of abiraterone plasma profiles, monkeys (Example 7D)
# condition-description: monkey, plasma, iv, […]
readout-name: Vd (L/kg)
Kindly provide the numeric value in L/kg only, without the unit symbol.

// Vd lookup, compound = C[C@]12CC[C@H](O)CC1=CC[C@@H]1[C@@H]2CC[C@]2(C)C(c3cccnc3)=CC[C@@H]12 [Abiraterone] , result: 5.73

---

# assay-details: PK modelling and deconvolution of abiraterone plasma profiles, monkeys (Example 7D)
# condition-description: monkey, plasma, iv, […]
readout-name: clearance

// clearance lookup, compound = C[C@]12CC[C@H](O)CC1=CC[C@@H]1[C@@H]2CC[C@]2(C)C(c3cccnc3)=CC[C@@H]12 [Abiraterone] , result: 43 mL/min/kg

---

# assay-details: in vivo
# condition-description: male, beagle, dog, plasma, im, 87 mg/kg
readout-name: half-life
Please provide the amount together with its unit, number first.

// half-life lookup, molecule = CCCCCCCCCC(=O)O[C@H]1CC[C@@]2(C)C(=CC[C@@H]3[C@@H]2CC[C@]2(C)C(c4cccnc4)=CC[C@@H]32)C1 [Abiraterone Decanoate, Abiraterone decanoate] , result: 161 h

---

# assay-details: in vivo
# condition-description: male, beagle, dog, plasma, im, 87 mg/kg
readout-name: CL/F (mL/min/kg)
Kindly provide the numeric value in mL/min/kg only, without the unit symbol.

// CL/F lookup, compound = CCCCCCCCCC(=O)O[C@H]1CC[C@@]2(C)C(=CC[C@@H]3[C@@H]2CC[C@]2(C)C(c4cccnc4)=CC[C@@H]32)C1 [Abiraterone Decanoate, Abiraterone decanoate] , result: 207

---

# assay-details: in vivo
# condition-description: Beagle, dog, im, mean abiraterone AUCINF after IM, corrected for dose and time units
readout-name: AUC(0-inf)

// AUC(0-inf) lookup, molecule = C[C@]12CC[C@H](O)CC1=CC[C@@H]1[C@@H]2CC[C@]2(C)C(c3cccnc3)=CC[C@@H]12 , result: 0.104 µg·h/mL

---

# assay-details: in vivo
# condition-description: male, beagle, dog, plasma, im, 87 mg/kg
readout-name: bioavailability (%)
Kindly provide the numeric value in % only, without the unit symbol.

// bioavailability lookup, compound = C[C@]12CC[C@H](O)CC1=CC[C@@H]1[C@@H]2CC[C@]2(C)C(c3cccnc3)=CC[C@@H]12 , result: 42

---

# assay-details: Plasma PK in rats after IM injection of abiraterone or abiraterone acetate formulations (Example 5A)
# condition-description: male, rat, Tmax, Group 4: IM abiraterone suspension, sodium phosphate buffer, 0.1% Tween (62.5 mg/ml), group mean
readout-name: Tmax (h)
Kindly provide the numeric value in h only, without the unit symbol.

// Tmax lookup, molecule = C[C@]12CC[C@H](O)CC1=CC[C@@H]1[C@@H]2CC[C@]2(C)C(c3cccnc3)=CC[C@@H]12 [Abiraterone] , result: 1.67

---

# assay-details: Plasma PK in rats after IM injection of abiraterone or abiraterone acetate formulations (Example 5A)
# condition-description: male, rat, Cmax, Group 4: IM abiraterone suspension, sodium phosphate buffer, 0.1% Tween (62.5 mg/ml), group mean
readout-name: Cmax (ng/mL)
Kindly provide the numeric value in ng/mL only, without the unit symbol.

// Cmax lookup, molecule = C[C@]12CC[C@H](O)CC1=CC[C@@H]1[C@@H]2CC[C@]2(C)C(c3cccnc3)=CC[C@@H]12 , result: 1.43

---

# assay-details: in vivo
# condition-description: male, cynomolgus monkey, plasma, im, 90 mg/kg
readout-name: half-life

// half-life lookup, molecule = CCCCCCCCCC(=O)O[C@H]1CC[C@@]2(C)C(=CC[C@@H]3[C@@H]2CC[C@]2(C)C(c4cccnc4)=CC[C@@H]32)C1 [Abiraterone Decanoate, Abiraterone decanoate] , result: 240 h
